Reference source: patent US10980778B2

# TEST: Observed pharmacokinetic parameters, fixed and weight-based dosing regimen
# Type: in vivo, human
# CONDITION: human, in vivo, oral, 5 mg, PVO 5 mg Fixed Dose, N=15; read-out: AUC0-24 h Median
ASSAY ENDPOINT: AUC(0-t)
Number plus unit, in that order.

Value of measured AUC(0-t) for the entry CC1(C)CCC(C)(C)c2cc(Cn3cccn3)c(/C=C/c3ccc(C(=O)O)cc3)cc21 [Palovarotene] : 320 ng·h/mL

###

# TEST: Observed pharmacokinetic parameters, fixed and weight-based dosing regimen
# Type: in vivo, human
# CONDITION: human, in vivo, oral, 2.5 mg, PVO 2.5 mg Fixed Dose, N=4; read-out: AUC0-24 h Mean (SD)
ASSAY ENDPOINT: AUC(0-t) (ng·h/mL)
One number for each entry, in ng·h/mL.

Value of measured AUC(0-t) for the entry CC1(C)CCC(C)(C)c2cc(Cn3cccn3)c(/C=C/c3ccc(C(=O)O)cc3)cc21 : 176

###

# TEST: Observed pharmacokinetic parameters, fixed and weight-based dosing regimen
# Format: in vivo, human
# CONDITION: human, in vivo, oral, 2.5 mg, PVO 2.5 mg Weight-Adjusted Equivalent, N=3; read-out: AUC0-24 h Median
ASSAY ENDPOINT: AUC(0-t)
Number plus unit, in that order.

Value of measured AUC(0-t) for the entry CC1(C)CCC(C)(C)c2cc(Cn3cccn3)c(/C=C/c3ccc(C(=O)O)cc3)cc21 : 78 ng·h/mL

###

# TEST: Observed pharmacokinetic parameters, fixed and weight-based dosing regimen
# Type: in vivo, human
# CONDITION: human, in vivo, oral, 2.5 mg, PVO 2.5 mg Fixed Dose, N=4; read-out: AUC0-24 h Min
# Protocol: Table 4 summarizes the pharmacokinetic parameters of mean and median AUC0-24 values for subjects receiving 2.5 mg and 5.0 mg equivalent doses of palovarotene. […] One other parameter known to impact systemic exposure of palovarotene is food. For the clinical studies, all subjects are instructed to administer study medication at approximately the same time each day, and following a full meal, although the exact amount consumed is not recorded.
ASSAY ENDPOINT: AUC(0-t) (ng·h/mL)
One number for each entry, in ng·h/mL.

Value of measured AUC(0-t) for the entry CC1(C)CCC(C)(C)c2cc(Cn3cccn3)c(/C=C/c3ccc(C(=O)O)cc3)cc21 [Palovarotene] : 107

###

# TEST: Observed pharmacokinetic parameters, fixed and weight-based dosing regimen
# Assay type: in vivo, human
# CONDITION: human, in vivo, oral, 5 mg, PVO 5 mg Weight-Adjusted Equivalent, N=6; read-out: AUC0-24 h Min
ASSAY ENDPOINT: AUC(0-t) (ng·h/mL)
Numbers only, in ng·h/mL.

Value of measured AUC(0-t) for the entry CC1(C)CCC(C)(C)c2cc(Cn3cccn3)c(/C=C/c3ccc(C(=O)O)cc3)cc21 [Palovarotene] : 139

###

# TEST: Observed pharmacokinetic parameters, fixed and weight-based dosing regimen
# Assay type: in vivo, human
# CONDITION: human, in vivo, oral, 2.5 mg, PVO 2.5 mg Weight-Adjusted Equivalent, N=3; read-out: AUC0-24 h Min
ASSAY ENDPOINT: AUC(0-t) (ng·h/mL)
Numbers only, in ng·h/mL.

Value of measured AUC(0-t) for the entry CC1(C)CCC(C)(C)c2cc(Cn3cccn3)c(/C=C/c3ccc(C(=O)O)cc3)cc21 : 37
